Just for reference, PubChem BioAssay AID1159580 is where these values come from.

So I've got a bunch of compounds here, and I need their normalized growth values.
Experiment: chemical genetic growth profiling, strain panel (AID 1159580);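 also: tested at 20 µM; growth read once vehicle control cultures reached saturation at 30 °C; 1 = growth at the plate median or of vehicle wells; lower values mean less growth of the strain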
Conditions: S. cerevisiae deletion strains, growth OD, locus YOR136W, strain idh2, hits give low values
Hit rate of the full screen: of about 5,500 compounds, about 2,000 (36%) were called active. Another 18% or so got no clear call; they are omitted. The list shows a part of the results.
Note: the reply should be a number with no unit written.

Name the recorded normalized growth of the item `O=C(O)/C=C/c1ccc(O)c(O)c1` in your answer. 1.02

Write down normalized growth measured for item `CC1(C)S[C@@H]2[C@H](NC(=O)[C@H](N)c3ccccc3)C(=O)N2[C@H]1C(=O)O` 0.995

Read the entry CCC1(O)CC(OC2CC(N(C)C)C(OC3CC(O)C(OC4CCC(=O)C(C)O4)C(C)O3)C(C)O2)c2c(cc3c(c2O)C(=O)c2c(O)cccc2C3=O)C1C(=O)OC (stereo unspecified) and write its reported normalized growth. 1

Fill in normalized growth for record `COC(=O)c1cc(=O)c(O)c2c(O)c(O)ccc2c1` 0.869

Find the measured normalized growth of CN1C2CCC1CC(OC(c1ccccc1)c1ccccc1)C2 (stereo unspecified) and report it. 0.972

Identify normalized growth associated with the compound OCC(O)CN1CCN(c2ccccc2)CC1 (stereo unspecified) 0.994

Please list normalized growth recorded for the compound `CC[C@@]1(O)C[C@H](O)c2c(cc3c(c2O)C(=O)c2c(O)ccc(O)c2C3=O)[C@H]1C(=O)OC` 0.877

Identify normalized growth associated with the compound `COc1ccc(C(=O)O)cc1OC` 0.995

For the compound `COc1cc(OC)c2c(c1)O[C@H](c1cc(OC)c(OC)c(OC)c1)[C@H](OC(=O)c1cc(OC)c(OC)c(OC)c1)C2` , give its reported normalized growth. 0.997

Item `O=C(O[C@@H]1Cc2c(O)cc(O)cc2O[C@@H]1c1cc(O)c(O)c(O)c1)c1cc(O)c(O)c(O)c1` : provide normalized growth 0.966

Item `CCN(CC)C(=O)N1CCN(C)CC1` : provide normalized growth 0.991

Hello, please tell me recorded normalized growth for this one: `Cc1ncc(CNC(=O)N(CCCl)N=O)c(N)n1` 0.981

Note down normalized growth recorded for COC(=O)C[C@H]1C2(C)CC34OC5(C)O[C@@]6([C@H](OC(C)=O)C(OC(C)=O)[C@]7(C)C(/C(=C(/O)C(C)C)C(=O)O[C@H]7c7ccoc7)[C@@]6(O5)[C@H](OC(C)=O)[C@@]3(O)C2OC(=O)C(C)C)[C@]14C (stereo partly specified) 1

Tell me measured normalized growth for CCC(C)C(=O)O[C@@H]1C[C@@]2(C)[C@H](c3ccoc3)OC(=O)CC23OC2(C)OC34[C@H](OC(=O)C(C)C)[C@@]3(O)[C@@H](OC(=O)C5(C)OC5C)[C@@]5(C)C[C@]3(O)[C@@](C)([C@H]5CC(=O)OC)C14O2 (stereo partly specified) please. 1.01

Identify measured normalized growth corresponding to `CCCCNC(=O)NS(=O)(=O)c1ccc(C)cc1` 0.998

Let me know recorded normalized growth for `CC[C@@]1(O)C[C@H](O[C@H]2C[C@H](N(C)C)[C@H](O)[C@H](C)O2)c2c(cc3c(c2O)C(=O)c2c(O)ccc(O)c2C3=O)[C@H]1C(=O)OC` , thanks. 0.203

Provide normalized growth value for the following compound: `CC(=O)Oc1cc(OC(C)=O)c2c(c1)O[C@H](c1ccc(OC(C)=O)c(OC(C)=O)c1)[C@H](OC(C)=O)C2` 1.05

Look up normalized growth of `O=C(Oc1cc(O)cc2c1C[C@@H](OC(=O)c1cc(O)c(O)c(O)c1)[C@@H](c1cc(O)c(O)c(O)c1)O2)c1cc(O)c(O)c(O)c1` and report it. 0.795

Given CCC(C)C(=O)O[C@@H]1C[C@@]2(C)[C@H](c3ccoc3)OC(=O)CC23OC2(C)O[C@]14[C@]1(C)[C@@H](CC(=O)OC)C5(C)CC1(O)[C@](O)(C5OC(=O)C1(C)OC1C)[C@@H](OC(C)=O)[C@]34O2 (stereo partly specified) , respond with its normalized growth. 0.999

Answer with the recorded normalized growth of `NCCCS(=O)(=O)O` only. 0.981

Give reported normalized growth value for `C[C@H]1COc2c(N3CCN(C)CC3)c(F)cc3c(=O)c(C(=O)O)cn1c23` 1.02

Complete the entry with normalized growth for CC1CCc2cc(F)cc3c(=O)c(C(=O)O)cn1c23 (stereo unspecified) 0.98

# return recorded normalized growth for entry `O=c1cccc2ccc(O)c(O)c2c1O` 0.712

Supply reported normalized growth belonging to this compound: `O=S(=O)(O)CCS` 0.994

Respond only with normalized growth recorded for c1ccc2c(c1)CCCC2C1=NCCN1 (stereo unspecified) 0.994

Answer with the recorded normalized growth for the compound listed here: `NC(=O)c1ccc[n+]([C@@H]2O[C@H](COP(=O)([O-])OP(=O)(O)OC[C@H]3O[C@@H](n4cnc5c(N)ncnc54)[C@H](OP(=O)(O)O)[C@@H]3O)[C@@H](O)[C@H]2O)c1` 1.01

Given C=C1C2CC[C@@]3(C)[C@H](c4ccoc4)OC(=O)C[C@]13O[C@H]1CC(=O)C(C)(C)[C@H](C(OC(C)=O)C(=O)OC)[C@@]21C (stereo partly specified) , respond with its normalized growth. 0.997

Provide only the value of recorded normalized growth for `O=C(O)CCCc1ccccc1` 0.976

Recall and state the measured normalized growth for `C=CCc1ccc(O)c(OC)c1` . 0.992

Tell us which normalized growth value is on record for `CCn1cc(C(=O)O)c(=O)c2cc(F)c(N3CCNCC3)nc21` 1.01

Using the record for COc1cc2nc(N(C)CCCNC(=O)C3CCCO3)nc(N)c2cc1OC (stereo unspecified) , state its measured normalized growth. 1

Identify measured normalized growth corresponding to CCn1cc(C(=O)O)c(=O)c2cc(F)c(N3CCNC(C)C3)c(F)c21 (stereo unspecified) 0.998

Note normalized growth for the compound shown: `Clc1ccc(C(c2ccc(Cl)cc2)C(Cl)(Cl)Cl)cc1` 0.99

Item CCC(C)C(=O)OC1CC2(C)C(c3ccoc3)OC(=O)CC23OC2(C)OC34C(OC(=O)C(C)C)C3(O)C(OC(=O)C5(C)OC5C)C5(C)CC3(O)C(C)(C5C(=O)OC)C14O2 (stereo unspecified) : provide normalized growth 1.01

Please supply the value of reported normalized growth for the item `CCC[C@H](N[C@@H](C)C(=O)N1[C@H](C(=O)O)C[C@@H]2CCCC[C@@H]21)C(=O)OCC` 1.02

Please indicate normalized growth recorded for CNCCC(Oc1ccc(C(F)(F)F)cc1)c1ccccc1 (stereo unspecified) 0.99

====

Test: chemical genetic growth profiling, strain panel (AID 1159580);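 also: tested at 20 µM; growth read once vehicle control cultures reached saturation at 30 °C; 1 = growth at the plate median or of vehicle wells; lower values mean less growth of the strain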
Details: S. cerevisiae strains, growth OD, strain wild type
The campaign covered roughly 5,500 compounds. About 2,000 (36%) were called active. Roughly 18% stayed inconclusive and do not appear here. Rule as the data show it: active = normalized growth mostly below about 0.91 (no sharp cut-off); inconclusive = no clear call, values can overlap the other calls; inactive = mostly above about 0.92. The list shows a part of the results.
Tick one outcome: active, inactive

Kindly provide the recorded test outcome for the following compound: COc1ccc(OC)c(C(O)CNC(=O)CN)c1 (configuration not stated) inactive

What did the test return for c1ccc2c(c1)CCCC2C1=NCCN1 (configuration not stated) ? inactive

Lab log entry: `Oc1cc(O)c2c(c1)O[C@H](c1ccc(O)c(O)c1)[C@H](O)C2` — outcome as called in the assay? inactive

Per the assay record, what outcome was assigned to `Oc1cc(O)c2c(c1)O[C@H](c1ccc(O)c(O)c1)[C@@H](O)C2` ? inactive

Identify the outcome logged in this assay for the compound shown: CC(=O)O[C@H]1C[C@@H](OC(C)=O)C(C)(C)C2CC(=O)[C@]3(C)C(CC[C@@]4(C)[C@H](C(=O)O)OC(=O)C5OC543)[C@]21C (some centres not stated) inactive

For CNCCC(Oc1ccc(C(F)(F)F)cc1)c1ccccc1 (configuration not stated) , which call appears in the assay record? inactive

Just curious, what result did `C#CCN(C)Cc1ccccc1` get here? inactive

What outcome does the record of this test show for `COc1ccc(C(=O)O)cc1OC` ? inactive

Would you mind telling me which call this test gave `CC(=O)Oc1cc(OC(C)=O)c2c(c1)O[C@H](c1ccc(OC(C)=O)c(OC(C)=O)c1)[C@@H](OC(C)=O)C2` ? inactive

Hi, sorry to bother you, what did the test record for `O=C(Oc1cc(O)cc2c1C[C@@H](OC(=O)c1cc(O)c(O)c(O)c1)[C@@H](c1cc(O)c(O)c(O)c1)O2)c1cc(O)c(O)c(O)c1` ? active

Returns: the outcome recorded for `CN1CC(CO)=C[C@@H]2c3cccc4[nH]cc(c34)C[C@H]21` in this assay. inactive

What did this assay record as the result for `NS(=O)(=O)c1cc2c(cc1Cl)NC=NS2(=O)=O` ? inactive

For `O=C(O)CCCc1ccc(N(CCCl)CCCl)cc1` , which call appears in the assay record? inactive

Query: recorded result category for `C=CCc1ccc(OC(=O)c2ccccc2)c(OC)c1` in this test inactive

Outcome? `COc1cc(OC)c2c(c1)O[C@H](c1cc(OC)c(OC)c(OC)c1)[C@H](OC(=O)c1cc(OC)c(OC)c(OC)c1)C2` inactive

Tell me the recorded outcome of this test for `CC(C)(C)S(=O)(=O)/C(C#N)=C/c1ccc(F)cc1F` . inactive

// outcome(item) with item = N#CCCN(CC1CCCO1)C(=S)Nc1cc(C(F)(F)F)cc(C(F)(F)F)c1 (configuration not stated) inactive

Returns: the outcome recorded for `Cc1ccc(S(=O)(=O)NC(=O)NN2CCCCCC2)cc1` in this assay. inactive

Answer briefly: the call reported for `Cc1ccc(C)n1-c1ccc(C(=O)NNC(=O)c2ccc3nccnc3c2)cc1` in this assay. inactive

Recorded test outcome, item `COc1c(Br)cc([N+](=O)[O-])c(OC)c1C(N)=O` inactive

What was the test verdict on `Cc1ncc(CNC(=O)N(CCCl)N=O)c(N)n1` ? inactive

Outcome? `CCCCNC(=O)NS(=O)(=O)c1ccc(C)cc1` inactive
